# credit: patent US20250171542A1

# Target: T1, PD-L2 (Sino Biological, Cat #10292-H08H) (UniProt Q9BQ51 20-219)
# T1 sequence (looked up): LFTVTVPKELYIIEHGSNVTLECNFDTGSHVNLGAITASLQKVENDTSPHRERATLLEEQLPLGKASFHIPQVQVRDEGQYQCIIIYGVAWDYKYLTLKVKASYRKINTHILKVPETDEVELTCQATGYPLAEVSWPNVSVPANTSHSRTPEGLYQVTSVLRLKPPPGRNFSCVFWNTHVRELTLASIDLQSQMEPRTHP
# Method: ELISA
Experimental endpoint: binding result

• 27A2 (antibody, human IgG1, V domains shown) VH: QEQLEESGGGLVQPEGSLTLTCTASGFSFSSNHYMSWVRQAPGKGLEWIGSIGVGSGITDYASWAKGRFTISKASSTTLTLQMTTLTAADTAIYFCARWTSGGGGFGLWGPGTLVTVSS VL: QVLTQTSSPVSAAVGGTVTINCQSSQTIYSDYLFWYQQTPGQPPKLLIYQTSTLASGVPSRFKGSGSGTEFTLTISEIQCDDAATYYCQGYYSGYIWTFGGGTEVVVR = no binding
• 32E2 (antibody, human IgG1, V domains shown) VH: QEQLEESGGDLVKPEGSLTLTCTASGFSFSSSYYMSWVRQAPGMGLEWIASISGGVTDNAYYASWAKGRFTVSKTSSTTVTLQLTSLTAADTATYFCARDSSSGYFFLLWGPGTLVTVSS VL: LVMTQTPSSVSAAVGGTVTINCQASQNIYSNLAWYQQKPGQRPKLLIFGASNLRSGVPSRFKGSGSGTEYTLTISDLECADAATYYCQEGYSIGNVDNPFGGGTEVVVK = no binding
• 56H3 (antibody, human IgG1, V domains shown) VH: QEQLVESGGGLVQPEGSLTLTCTASEFSFSNNYYMSWVRQAPGKGLEWLGSIGIGSGITDYASWAKGRFTISKASSTTVTLQMTTLTAADTAIYFCARWTSGGGGFGLWGPGTLVTVSS VL: QVLTQTSSPVSAAVGGTVTINCQSSQTIYSDYLFWYQQKPGQPPKLLIYQTSTLASGVPSRFSGSGSGTQFTLTISGVQCDDAATYYCQGYYSGYIWTFGGGTEVVVN = no binding
